Reported Avg. % inhibition values for the following binders.
target: Human CD4 on CD4+CD25+ regulatory T cells of healthy donors (human, UniProt P01730 26-458); experiment: cell-based or functional assay
Answer in %, number only, no unit symbol.

binder	resultNumber
LC G33A HC R33K (antibody, V domains shown) VH: EEQLVESGGGLVKPGGSLRLSCAASGFSFSDCKMYWLRQAPGKGLEWIGVISVKSENYGANYAESVRGRFTISRDDSKNTVYLQMNSLKTEDTAVYYCSASYYRYDVGAWFAYWGQGTLVTVSS VL: DIVMTQSPDSLAVSLGERATINCRASKSVSTSAYSYIYWYQQKPGQPPKLLIYLASILESGVPDRFSGSGSGTDFTLTISSLQAEDVAVYYCQHSRELPWTFGQGTKVEIKR	7.8

Here is another binder to look at.
Ask | Give Avg. % inhibition for LC master HC master (antibody, human IgG1, kappa, V domains shown) VH: EEQLVESGGGLVKPGGSLRLSCAASGFSFSDCRMYWLRQAPGKGLEWIGVISVKSENYGANYAESVRGRFTISRDDSKNTVYLQMNSLKTEDTAVYYCSASYYRYDVGAWFAYWGQGTLVTVSS VL: DIVMTQSPDSLAVSLGERATINCRASKSVSTSGYSYIYWYQQKPGQPPKLLIYLASILESGVPDRFSGSGSGTDFTLTISSLQAEDVAVYYCQHSRELPWTFGQGTKVEIKR
Reply | 26.3
